# Test system: 349418-098-R-PDC complex spheroid growth
# ASSAY_INFO: Anticancer human tumor 349418-098-R-PDC patient-derived lung adenocarcinoma cell line growth inhibition [AhR]; active = viability on the fitted dose curve at most 10% of control; inactive = the rest
# CONDITION_NOTES: second compound 0.1 µM; first compound 0.00949 µM
Outcome (select one): true = active, false = inactive

Worked set:
CC(C)CC(NC(=O)C(Cc1ccccc1)NC(=O)c1cnccn1)B(O)O (stereo not drawn) + CC(CO)NC(=O)c1cc(-c2ccc(Cl)cc2)nn(-c2cnn(C)c2)c1=O: true
CC(C)CC(NC(=O)C(Cc1ccccc1)NC(=O)c1cnccn1)B(O)O (stereo not drawn) + Cc1ccccc1N=Nc1ccc(NC(=O)c2ccnn2C)c(C)c1: true

Next up:
In this assay, the call recorded for Nc1ncn(C2CC(O)C(CO)S2)c(=O)n1 (stereo not drawn) + Cc1ccccc1N=Nc1ccc(NC(=O)c2ccnn2C)c(C)c1 was what? false

---

# Test system: 349418-098-R-PDC complex spheroid growth
# ASSAY_INFO: Anticancer human tumor 349418-098-R-PDC cell line growth inhibition [AhR]; active = viability on the fitted dose curve at most 10% of control; inactive = the rest
# CONDITION_NOTES: second compound 3.16 µM; first compound 0.00949 µM
Write down the outcome that applies. Available outcomes: 1 for active, 0 for inactive

Would you please look over these solved cases?
CCc1c2c(nc3ccc(O)cc13)-c1cc3c(c(=O)n1C2)COC(=O)[C@]3(O)CC + Cc1cncc(-c2nc(NCCc3c[nH]c4ccccc34)c3ncn(C(C)C)c3n2)c1: 1
CCc1c2c(nc3ccc(O)cc13)-c1cc3c(c(=O)n1C2)COC(=O)[C@]3(O)CC + Cc1ccccc1N=Nc1ccc(NC(=O)c2ccnn2C)c(C)c1: 0
CC(C)CC(NC(=O)C(Cc1ccccc1)NC(=O)c1cnccn1)B(O)O (stereo unspecified) + CC(CO)NC(=O)c1cc(-c2ccc(Cl)cc2)nn(-c2cnn(C)c2)c1=O: 1

Could you kindly confirm the outcome this assay logged for CC(C)CC(NC(=O)C(Cc1ccccc1)NC(=O)c1cnccn1)B(O)O (stereo unspecified) + Cc1ccccc1N=Nc1ccc(NC(=O)c2ccnn2C)c(C)c1 ? 1

Recorded test call requested for O=C(C=Cn1cnc(-c2cc(C(F)(F)F)cc(C(F)(F)F)c2)n1)NNc1cnccn1 + CC(CO)NC(=O)c1cc(-c2ccc(Cl)cc2)nn(-c2cnn(C)c2)c1=O 0

Outcome? CCN(c1cc(-c2ccc(CN3CCOCC3)cc2)cc(C(=O)NCc2c(C)cc(C)[nH]c2=O)c1C)C1CCOCC1 + Cc1cncc(-c2nc(NCCc3c[nH]c4ccccc34)c3ncn(C(C)C)c3n2)c1 0

---

# Tested on: 349418-098-R-PDC complex spheroid growth
# ASSAY_INFO: Anticancer human tumor 349418-098-R-PDC cell line growth inhibition [AhR];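 note: spheroids also contain HUVEC endothelial cells and human MSC stroma; spheroids exposed to agents for seven days before luminescence viability read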
# CONDITION_NOTES: second compound 0.1 µM; first compound 0.1 µM; stronger effect = lower value
VALUE_KIND: viability, T/C (%)
I only need the number, in %, no unit after it.

O=C(C=Cc1cccc(S(=O)(=O)Nc2ccccc2)c1)NO + CC(CO)NC(=O)c1cc(-c2ccc(Cl)cc2)nn(-c2cnn(C)c2)c1=O: 94
O=C(c1cc(Cc2n[nH]c(=O)c3ccccc23)ccc1F)N1CCN(C(=O)C2CC2)CC1 + Cc1ccccc1N=Nc1ccc(NC(=O)c2ccnn2C)c(C)c1: 73.2
Nc1ccn(C2OC(CO)C(O)C2(F)F)c(=O)n1 (centres undefined) + CC(CO)NC(=O)c1cc(-c2ccc(Cl)cc2)nn(-c2cnn(C)c2)c1=O: 13.3

Switching to the query record.
Please give the measured viability, T/C for this compound: Nc1ccn(C2OC(CO)C(O)C2(F)F)c(=O)n1 (centres undefined) + Cc1ccccc1N=Nc1ccc(NC(=O)c2ccnn2C)c(C)c1 14.6

---

# Test system: 349418-098-R-PDC complex spheroid growth
# ASSAY_INFO: Anticancer human tumor 349418-098-R-PDC cell line growth inhibition [AhR];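 note: spheroids also contain HUVEC endothelial cells and human MSC stroma; spheroids exposed to agents for seven days before luminescence viability read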
# CONDITION_NOTES: second compound 3.16 µM; first compound 0.1 µM; stronger effect = lower value
# Source text: Multicellular complex tumor spheroid response to aryl hydrocarbon receptor antagonists in combination with a variety of drugs and investigational agents in selected tumor cell lines […] Compounds. […] If the clinical Cmax for an agent had not been determined, the highest concentration tested was 10 microM (Table 1). […]
Label key: true (1) means viability, T/C under 60%; false (0) means viability, T/C of 60% or more.

Answered cases to consult:
Nc1ccccc1NC(=O)c1ccc(CNC(=O)OCc2cccnc2)cc1 + CC(CO)NC(=O)c1cc(-c2ccc(Cl)cc2)nn(-c2cnn(C)c2)c1=O: false (0)
O=C(C=Cc1cccc(S(=O)(=O)Nc2ccccc2)c1)NO + Cc1cncc(-c2nc(NCCc3c[nH]c4ccccc34)c3ncn(C(C)C)c3n2)c1: true (1)

Take the compound NS(=O)(=O)OCC1CC(n2ccc3c(NC4CCc5ccccc54)ncnc32)CC1O (configuration not stated) + CC(CO)NC(=O)c1cc(-c2ccc(Cl)cc2)nn(-c2cnn(C)c2)c1=O and say whether its viability, T/C is less than 60%. true (1)

Determine whether this compound shows viability, T/C lower than 60% (ties excluded): Cn1ncnc1C1c2n[nH]c(=O)c3cc(F)cc(c23)NC1c1ccc(F)cc1 (configuration not stated) + Cc1ccccc1N=Nc1ccc(NC(=O)c2ccnn2C)c(C)c1 false (0)

---

# Tested on: 349418-098-R-PDC complex spheroid growth
# ASSAY_INFO: Anticancer human tumor 349418-098-R-PDC cell line growth inhibition [AhR];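 note: spheroids also contain HUVEC endothelial cells and human MSC stroma; spheroids exposed to agents for seven days before luminescence viability read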
# CONDITION_NOTES: second compound 3.16 µM; first compound 10 µM; stronger effect = lower value
Recorded viability, T/C by entry
Kindly provide the numeric value in % only, without the unit symbol.

Solved cases (3 shown):
COc1cc(C2c3cc4c(cc3C(OC3OC5COC(C)OC5C(O)C3O)C3COC(=O)C23)OCO4)cc(OC)c1O (centres undefined) + Cc1cncc(-c2nc(NCCc3c[nH]c4ccccc34)c3ncn(C(C)C)c3n2)c1: 4.57
COc1cc(C2c3cc4c(cc3C(OC3OC5COC(C)OC5C(O)C3O)C3COC(=O)C23)OCO4)cc(OC)c1O (centres undefined) + CC(CO)NC(=O)c1cc(-c2ccc(Cl)cc2)nn(-c2cnn(C)c2)c1=O: 13.5
CC1COCCN1c1cc(C2(S(C)(=N)=O)CC2)nc(-c2ccnc3[nH]ccc23)n1 (centres undefined) + CC(CO)NC(=O)c1cc(-c2ccc(Cl)cc2)nn(-c2cnn(C)c2)c1=O: 13.4

Proceed to the following item.
viability, T/C for NS(=O)(=O)OCC1CC(n2ccc3c(NC4CCc5ccccc54)ncnc32)CC1O (centres undefined) + Cc1ccccc1N=Nc1ccc(NC(=O)c2ccnn2C)c(C)c1 ? 9.47

---

# System: 349418-098-R-PDC complex spheroid growth
# ASSAY_INFO: Anticancer human tumor 349418-098-R-PDC cell line growth inhibition [AhR];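 note: spheroids also contain HUVEC endothelial cells and human MSC stroma; spheroids exposed to agents for seven days before luminescence viability read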
# CONDITION_NOTES: second compound 1 µM; first compound 0.0316 µM; stronger effect = lower value
viability, T/C less than 70% is Satisfied; viability, T/C greater than or equal to 70% is Not satisfied.

Recorded results for 3 compounds are shown here.
CC[C@@]1(O)C(=O)OCc2c1cc1n(c2=O)Cc2cc3c(CN(C)C)c(O)ccc3nc2-1 + Cc1ccccc1N=Nc1ccc(NC(=O)c2ccnn2C)c(C)c1: Satisfied
COc1ccc([C@@H](O)c2cc(-c3ncnc4cc(N5CCOCC5)ccc34)c(F)cc2Cl)nn1 + Cc1ccccc1N=Nc1ccc(NC(=O)c2ccnn2C)c(C)c1: Not satisfied
O=C(c1cc(Cc2n[nH]c(=O)c3ccccc23)ccc1F)N1CCN(C(=O)C2CC2)CC1 + Cc1cncc(-c2nc(NCCc3c[nH]c4ccccc34)c3ncn(C(C)C)c3n2)c1: Not satisfied

Below 70% on viability, T/C? Entry Cn1ncnc1C1c2n[nH]c(=O)c3cc(F)cc(c23)NC1c1ccc(F)cc1 (stereo not given) + CC(CO)NC(=O)c1cc(-c2ccc(Cl)cc2)nn(-c2cnn(C)c2)c1=O Satisfied

Confirm or reject: viability, T/C of Nc1ccccc1NC(=O)c1ccc(CNC(=O)OCc2cccnc2)cc1 + CC(CO)NC(=O)c1cc(-c2ccc(Cl)cc2)nn(-c2cnn(C)c2)c1=O lies strictly below 70% Not satisfied

For this compound, is viability, T/C lower than 70%? CC[C@@]1(O)C(=O)OCc2c1cc1n(c2=O)Cc2cc3c(CN(C)C)c(O)ccc3nc2-1 + Cc1cncc(-c2nc(NCCc3c[nH]c4ccccc34)c3ncn(C(C)C)c3n2)c1 Satisfied

Given the entry COc1cccc2c1C(=O)c1c(O)c3c(c(O)c1C2=O)CC(O)(C(=O)CO)CC3OC1CC(N)C(O)C(C)O1 (stereo not given) + CC(CO)NC(=O)c1cc(-c2ccc(Cl)cc2)nn(-c2cnn(C)c2)c1=O , would its reported viability, T/C be below 70%? Satisfied

viability, T/C under 70%? Item: CC1COCCN1c1cc(C2(S(C)(=N)=O)CC2)nc(-c2ccnc3[nH]ccc23)n1 (stereo not given) + CC(CO)NC(=O)c1cc(-c2ccc(Cl)cc2)nn(-c2cnn(C)c2)c1=O Satisfied

Cited source: PubChem BioAssay AID1918996
